Record form. Attribute: TGI. Fill in for each entry.
Tested on: NCI/ADR-RES ovarian
Assay protocol: NCI tumour cell line growth inhibition, 48 h

Consider the reported TGI for these molecules:
CSc1nc2ccc(C)cc2cc1/C=C1/C=C(c2ccccc2)NC1=O; 87.5 µM
CC(C)(CO)CNc1cc(Cl)nc(N)n1; > 100 µM
COc1ccc(/C=C2\OC(=O)C(Cl)=C2c2ccc(OC)c(Cl)c2)cc1; 52.6 µM
CC(C)(C)OC(=O)NNCC(O)COc1ccccc1 (stereo unspecified); > 100 µM
CSc1c(C)n([O-])c2cc(Cl)c(Cl)cc2[n+]1=O; 39.3 µM
c1ccc(-c2cc3n4c(-c5ccccc5)nn(-c5ccccc5)c4cnc-3n2)cc1; > 50 µM
CCCCCCCCc1cc(O)ccc1O; 56.2 µM
CCOC(=O)Cc1cc(=O)[nH]c(-n2[nH]c(C)c(CCO)c2=O)n1; > 100 µM
CC1=NN(c2nc(N)nc(-c3cc4ccccc4oc3=N)n2)C(C)(C)C1; 43.9 µM
CC(C)N1[C@@H]2CCCC[C@H]2N(C(C)C)[P+]1=O; > 100 µM

// moving on: another record for TGI
Could you share which TGI value was measured for NC1=C(O)C(=O)C(c2c[nH]c3ccc(OCc4ccccc4)cc23)O1 (stereo unspecified) ? > 100 µM
